- System: NRTI-resistant recombinant HIV-1 isolates
- assay_notes: p24 assay, multi-NRTI-resistant recombinant HIV-1 clones
- Format: cell-based
- condition_label: Human immunodeficiency virus 1, read-out: IC50 (nM), median, Group B (n = 6)
property: IC50

Query :: Find the recorded IC50 belonging to COC(=O)C(C)NP(=O)(OC[C@@H]1C=C[C@H](n2cc(C)c(=O)[nH]c2=O)O1)Oc1ccc(Br)cc1 (stereo partly shown) and report it.
Result :: 22.5 nM

---

IC50 by entry:
- Tested on: zidovudine-resistant primary clinical HIV-1 isolates in CD4-expressing HeLa cell line HT4-6C
- assay_notes: Syncytial focus (plaque) formation assay in HT4-6C cells
- Assay type: cell-based
- condition_label: Human immunodeficiency virus 1, HeLa, read-out: IC50, μM(Plaque Assay), isolate G704-2 (M41L, D67N, K70R, L210W, T215Y)
# number only, unit µM dropped from output

Query :: Item under review: Cc1cn([C@H]2C[C@H](N=[N+]=[N-])[C@@H](CO)O2)c(=O)[nH]c1=O [AZT, 3′-azido-3′-deoxythymidine] . Reported IC50?
Result :: 5.7

Query :: Dear colleague, I am looking for the recorded IC50 of the following compound: COC(=O)C(C)NP(=O)(OC[C@@H]1C=C[C@H](n2cc(C)c(=O)[nH]c2=O)O1)Oc1ccc(Br)cc1 (some centres unmarked) [Compound 1c]
Result :: 0.08

The reported numbers originate from patent US20070015733A1.
